Values were extracted from PubChem BioAssay (NCI).

# System: HT29 colon
# experimental-details: NCI tumour cell line growth inhibition, 48 h
parameter: TGI

response.value for CCOC(=O)/C=C(\C(=O)OCC)n1cc(Cl)c(=O)n(CC(=O)OCC)c1=O (field: TGI) = 38.3 µM

The recorded TGI for CCCCc1c2cnccc2c(CCCC)c2c1[nH]c1ccccc12 is 29 µM

The recorded TGI for entry O=c1oc2cc(OC/C(=N/O)c3ccc(F)cc3)ccc2c2ccccc12 equals 43.2 µM

Briefly, TGI measured for COC1=CC(=O)C=C(OC)C1=O : 65.3 µM

Reported TGI ( O=C1CSC(c2ccc([N+](=O)[O-])cc2)N1c1ccc(-c2ccc(-n3c(-c4ccccc4)nc4ccccc4c3=O)cc2)cc1 (stereo unspecified) ) = > 100 µM

Briefly, TGI measured for O=C(CI)Nc1ccc(O)c2ccccc12 : 2.8 µM

The molecule identified as CN1CCc2c(sc3ncn(Nc4ccc(Cl)cc4)c(=N)c23)C1 registered its TGI at > 100 µM

O=C(C#Cc1ccccc1)C1=Cc2ccccc2OC1 yielded TGI of 5.02 µM

// TGI lookup, molecule = COC1=C(C)C(=O)C2=C(C1=O)C1C3CC4=C(C(=O)C(OC)=C(C)C4=O)C(CNC(=O)C(C)O)N3C(C#N)C(C2)N1C (stereo unspecified) , result: < 0.01 µM

The reported value for O=C(c1cccnc1)N1N=C(c2ccccc2)CC1(O)c1cc(F)c(Cl)cc1Cl (stereo unspecified) in terms of TGI is > 100 µM

Per the record, N/C(=N\Nc1ccc(Cl)cc1)c1cnccn1 has TGI of > 100 µM

Input CC(C)C(=O)/C=C/S/C=C/C(=O)C(C)C . Output TGI: > 100 µM

Sample CC(C)C(=O)c1c(C(F)(F)F)n([O-])c2cc(F)c(F)cc2[n+]1=O ; TGI observed: 0.547 µM

###

# Tested on: A549 NSCLC
# experimental-details: NCI tumour cell line growth inhibition, 48 h
Reported log10 TGI values are given for each entry in this list.
// stored as log10 of TGI expressed in µM

molecule	system-name	log10 TGI
CC([C@H]1CC=C2C3CCC4=C[C@@H](N(C)C)CC[C@]4(C)C3CC[C@@]21C)N(C)C (some centres not stated)	A549 NSCLC	1.05
Clc1ccc2nc(CI)c(CI)nc2c1	A549 NSCLC	1.59
O=C(c1ccccc1)c1c(C(F)(F)F)n([O-])c2cc(C(F)(F)F)ccc2[n+]1=O	A549 NSCLC	0.54
COC1=CC(c2ccc[nH]2)=N/C1=C\c1[nH]c(C)c(CC(=O)OCc2ccccc2)c1C	A549 NSCLC	0.78

Record COC(=O)c1c2c(c(C)[n+]([O-])c1C)C(=O)C=C(NCc1cccc(Cl)c1)C2=O , field log10 TGI: 0.35

Sure, the documented log10 TGI for Cc1c(C)c(C)c(-n2c(=O)n(C)c(=O)n2-c2cc(C(C)(C)C)cc(C(C)(C)C)c2O)c(C)c1C is 1.24

Briefly, log10 TGI measured for COC(=O)[C@@H](C)[C@H]1CC[C@@](C)(CCC2=C(C)CC3C=C(C)CCC3C2(C)C)OO1 (some centres not stated) : 0.49

###

# System: SNB-19 CNS
# experimental-details: NCI tumour cell line growth inhibition, 48 h
Listed here are molecules together with their documented TGI.
A number alone suffices; assume µM.

Below, each entry is followed by its recorded TGI result.
molecule	TGI, µM
O=C(Nc1ccc(F)cc1)Nc1ccc(Br)c(C(F)(F)F)c1	15.6
Cn1nc(C(F)(F)F)c(-c2cc(C(F)(F)F)cc(C(F)(F)F)c2)c1-c1ccc(OCc2ccc(Cl)cc2)cc1O	14.8
Cn1c(-c2ccccc2)c(/C=C/C2=[N+](C)c3ccccc3C2(C)C)c2ccccc21	15.5
O=C(CI)Nc1ccc(O)c2ccccc12	11.7
CN(C)CCCC1(c2ccc(F)cc2)OCc2cc(-c3cc4ccccc4s3)ccc21 (stereo not drawn)	3.13
COc1ccc(-c2ncn(C[Si](C)(C)C)c2-c2ccc(OC)cc2)cc1	26.2
C[C@H]1CNC(=O)c2cnn3ccc(nc23)N[C@H](C)c2cc(F)ccc2O1	47.4
C[C@H]1COCCN1c1cc(C2(S(=O)(=O)C3CC3)CC2)nc(-c2ccc(NC(=S)NCCO)cc2)n1	11.5

Here is another molecule to look at.
Item C=CC(=O)N1C/C(=C\c2ccc([N+](=O)[O-])cc2)C(=O)/C(=C/c2ccc([N+](=O)[O-])cc2)C1 ; assay system SNB-19 CNS; TGI reported as 3.08
